Target: dopamine (DA) reuptake in synaptosomes (Rattus norvegicus)
Construct: in synaptosomes as described in WO 97/16451; from tissue
Sequence (P23977 whole entry): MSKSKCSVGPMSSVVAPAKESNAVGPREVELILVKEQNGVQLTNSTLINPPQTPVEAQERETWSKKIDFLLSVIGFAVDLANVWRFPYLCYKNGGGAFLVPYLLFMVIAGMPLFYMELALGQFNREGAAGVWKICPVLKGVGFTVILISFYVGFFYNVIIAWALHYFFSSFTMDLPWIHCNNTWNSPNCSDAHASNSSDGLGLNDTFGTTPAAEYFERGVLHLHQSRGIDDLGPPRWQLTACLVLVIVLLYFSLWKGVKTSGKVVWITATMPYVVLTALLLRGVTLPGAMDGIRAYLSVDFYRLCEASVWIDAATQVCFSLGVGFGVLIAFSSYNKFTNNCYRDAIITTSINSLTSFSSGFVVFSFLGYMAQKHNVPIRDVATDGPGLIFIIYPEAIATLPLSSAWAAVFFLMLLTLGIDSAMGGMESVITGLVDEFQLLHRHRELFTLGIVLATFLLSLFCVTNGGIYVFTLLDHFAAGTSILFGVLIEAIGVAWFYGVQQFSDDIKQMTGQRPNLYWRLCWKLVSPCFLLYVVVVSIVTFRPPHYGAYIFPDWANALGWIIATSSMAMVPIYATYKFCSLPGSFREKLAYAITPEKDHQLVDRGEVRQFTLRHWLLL
Experiment: Inhibition of dopamine (DA) reuptake in synaptosomes
Format: biochemical
Settings: 3H-DA, read-out: DA-uptake IC50
Structures can show the parent of a compound that is named as a salt.

[
  {
    "molecule": "COc1cc2ccc(O[C@@H]3C[C@H]4CC[C@@H](C3)N4)cc2oc1=O [IP2015, hydrochloride]",
    "IC50 (µM)": 0.07
  }
]
